- SUBJECT_OF_TEST: T1, human GITR (human, UniProt Q9Y5U5 26-241)
- T1 sequence: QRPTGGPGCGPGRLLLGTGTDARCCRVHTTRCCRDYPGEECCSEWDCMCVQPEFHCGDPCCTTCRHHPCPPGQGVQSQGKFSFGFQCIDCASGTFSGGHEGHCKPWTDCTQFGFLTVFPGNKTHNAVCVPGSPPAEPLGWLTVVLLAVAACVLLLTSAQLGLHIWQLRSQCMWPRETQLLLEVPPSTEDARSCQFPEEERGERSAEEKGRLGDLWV
- RUN_DESCRIPTION: cell-based or functional assay
PARAMETER_MEASURED: Proliferation (Fold over CD3) (fold over CD3)
Give the value, in units of fold over CD3, as a plain number.

Below are worked cases with known answers.
[
  {
    "BINDER": "5H7v5 (antibody, human IgG1, kappa, V domains shown) VH: QVQLQESGPGLVKPSETLSLTCTVSGGSISSGGYFWSWIRQPPGKGLEWIGYIYYSGTTYYNPSLKSRVTISIDTSKNQFSLKLSSVTAADTAVYYCARDLFYYESSGPRGFEPWGQGTLVTVSS VL: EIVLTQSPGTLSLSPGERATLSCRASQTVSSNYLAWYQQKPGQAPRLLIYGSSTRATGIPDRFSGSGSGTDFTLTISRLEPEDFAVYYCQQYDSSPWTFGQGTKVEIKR",
    "RESULT_UNIT": "fold over CD3",
    "Proliferation (Fold over CD3)": 1.4
  },
  {
    "BINDER": "5H7v7 (antibody, human IgG1, kappa, V domains shown, Engineered variant; also called Ab29; SS-16917) VH: QVQLQESGPGLVKPSETLSLTCTVSGGSISSGGYFWSWIRQPPGKGLEWIGYIYYSGTTYYNPSLKSRVTISIDTSKNQFSLKLSSVTAADTAVYYCARDLFYYDTSGPRGFEPWGQGTLVTVSS VL: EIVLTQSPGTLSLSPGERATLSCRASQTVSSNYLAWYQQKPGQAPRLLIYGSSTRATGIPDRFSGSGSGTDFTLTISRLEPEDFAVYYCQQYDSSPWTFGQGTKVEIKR",
    "RESULT_UNIT": "fold over CD3",
    "Proliferation (Fold over CD3)": 2.1
  }
]

Switching to the query record.
QUERY: Report Proliferation (Fold over CD3) for 7A10v4 (antibody, human IgG1, kappa, V domains shown, Engineered variant; also called Ab42; SS-16940) VH: QVQLVESGGGVVQPGRSLRLSCAASGFTFSSYGMHWVRQAPGKGLEWMAVIWYVGSNKYYADTVKGRFTISRDNSKNTLYLQMNSLRAEDTAVYYCARGGELGRDYYSGMDVWGQGTTVTVSS VL: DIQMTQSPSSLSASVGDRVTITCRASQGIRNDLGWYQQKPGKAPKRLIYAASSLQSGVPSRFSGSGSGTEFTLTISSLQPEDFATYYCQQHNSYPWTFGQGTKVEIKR please.
RESULT: 60
